target: Platelet-activating factor acetylhydrolase (Homo sapiens); experiment: pPAFAH enzyme inhibitors, primary screen, biochemical, fluorescence polarization, human (AID 463082); details: recombinant pPAFAH, FP-rhodamine probe fluorescence polarization; at 3.39 µM;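 further: inhibitors block binding of the rhodamine activity-based probe so polarization drops; 0% = enzyme with DMSO and 100% = wells lacking pPAFAH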
Screen size: about 330,000 compounds; about 4,900 (1.5%) were called active.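 How the source made its calls: active means inhibition above the mean inhibition across the screen plus 3 SD (cut at about 25% in these data); inactive means the rest.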 Only a selection was taken, and actives are over-represented in it overall.
Labels: YES (active), NO (inactive)

input_smiles=Cc1ccc2cc(/C=N/NC(=O)[C@@H]3CCCN3)c(Cl)nc2c1 target_or_system="Platelet-activating factor acetylhydrolase (Homo sapiens)" label=NO
input_smiles=O=C(O)c1ccc(N/N=C/c2ccc3ncccc3c2)cc1 target_or_system="Platelet-activating factor acetylhydrolase (Homo sapiens)" label=NO
input_smiles=CN(CC(=O)NC1CCCCC1)S(=O)(=O)c1cccc2cccnc12 target_or_system="Platelet-activating factor acetylhydrolase (Homo sapiens)" label=NO
input_smiles=Cc1ccc2cc(/C=N/Nc3ccc(C(=O)O)cc3)c(Cl)nc2c1 target_or_system="Platelet-activating factor acetylhydrolase (Homo sapiens)" label=YES
input_smiles=O=C(CNC(=O)c1cc(=O)[nH]c2ccccc12)Nc1ccc(F)c(F)c1 target_or_system="Platelet-activating factor acetylhydrolase (Homo sapiens)" label=NO
input_smiles=CCn1c(SCC(=O)Nc2sc(C)c(C)c2C#N)nnc1C1CC1 target_or_system="Platelet-activating factor acetylhydrolase (Homo sapiens)" label=NO

###

target: Platelet-activating factor acetylhydrolase (Homo sapiens); assay: pPAFAH enzyme inhibitors, primary screen, biochemical, fluorescence polarization, human (AID 463082); conditions: recombinant pPAFAH, FP-rhodamine probe fluorescence polarization; at 3.39 µM;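 further: inhibitors block binding of the rhodamine activity-based probe so polarization drops; 0% = enzyme with DMSO and 100% = wells lacking pPAFAH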
About 4,900 (1.5%) of roughly 330,000 compounds were called active.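 How the source made its calls: active means inhibition above the mean inhibition across the screen plus 3 SD (cut at about 25% in these data); inactive means the rest.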 For the sample, actives were picked, then their nearest neighbours and some compounds at random.
Labels: class 1 = active, class 0 = inactive

compound=CC(=O)c1ccc(NC(=O)CCc2nnc3ccc(NCc4ccco4)nn23)cc1 target_or_system="Platelet-activating factor acetylhydrolase (Homo sapiens)" label="class 0"
compound=Cc1ccc(/C=C2\SC(=S)N(CCC(=O)Nc3ccc(O)cc3)C2=O)cc1 target_or_system="Platelet-activating factor acetylhydrolase (Homo sapiens)" label="class 0"
compound=Cc1nc(NC(=O)c2cccc(Cl)c2)sc1-c1csc(Nc2cccc(Cl)c2)n1 target_or_system="Platelet-activating factor acetylhydrolase (Homo sapiens)" label="class 0"
compound="C=CCNC(=O)C1CC2c3ccccc3C1c1ccccc12 (stereo unspecified)" target_or_system="Platelet-activating factor acetylhydrolase (Homo sapiens)" label="class 0"
compound=COc1ccc(NC(=O)COC(=O)c2ccc(NS(=O)(=O)/C=C/c3ccccc3)cc2)cc1 target_or_system="Platelet-activating factor acetylhydrolase (Homo sapiens)" label="class 1"
compound=CN(CC(=O)Nc1ccc(OC(F)F)cc1)S(=O)(=O)/C=C/c1ccccc1 target_or_system="Platelet-activating factor acetylhydrolase (Homo sapiens)" label="class 0"
compound="COc1cccc(CNC(C)C(=O)Nc2ccc(S(=O)(=O)N3CCCC3)cc2)c1 (stereo unspecified)" target_or_system="Platelet-activating factor acetylhydrolase (Homo sapiens)" label="class 0"
compound=Cc1ccc(-c2nn(-c3ccccc3)cc2/C=C2\SC(=S)N(CCCCCC(=O)O)C2=O)o1 target_or_system="Platelet-activating factor acetylhydrolase (Homo sapiens)" label="class 1"
compound=Cc1cccc(C)c1Nc1nnc(SCC(=O)NCCCN2CCCC2=O)s1 target_or_system="Platelet-activating factor acetylhydrolase (Homo sapiens)" label="class 0"
compound=O=C(Nc1ccc(-c2csc(Nc3cccc(C(F)(F)F)c3)n2)cc1)c1cccc(C(F)(F)F)c1 target_or_system="Platelet-activating factor acetylhydrolase (Homo sapiens)" label="class 1"
compound=CCc1cccc(C)c1NC(=O)COC(=O)CNC(=O)c1cccs1 target_or_system="Platelet-activating factor acetylhydrolase (Homo sapiens)" label="class 0"
compound=Cc1cccc(C)c1Nc1nnc(SCC(=O)Nc2sccc2C#N)s1 target_or_system="Platelet-activating factor acetylhydrolase (Homo sapiens)" label="class 1"
compound=CNC(=S)NNC(=O)c1oc2nc(-c3ccccc3)cc(-c3ccco3)c2c1N target_or_system="Platelet-activating factor acetylhydrolase (Homo sapiens)" label="class 0"
compound=Nc1cccc(S(=O)(=O)Nc2ccc(SC(F)F)cc2)c1 target_or_system="Platelet-activating factor acetylhydrolase (Homo sapiens)" label="class 1"
compound="COc1ccccc1N1CC(C(=O)NCCN2C(=O)S/C(=C\\c3cccnc3)C2=O)CC1=O (stereo unspecified)" target_or_system="Platelet-activating factor acetylhydrolase (Homo sapiens)" label="class 0"
compound=O=C(CCc1nnc2ccc(NCc3ccco3)nn12)Nc1cc(F)ccc1F target_or_system="Platelet-activating factor acetylhydrolase (Homo sapiens)" label="class 1"
compound="CCOc1ccc(N2CC(C(=O)NCCN3C(=O)S/C(=C\\c4cccnc4)C3=O)CC2=O)cc1 (stereo unspecified)" target_or_system="Platelet-activating factor acetylhydrolase (Homo sapiens)" label="class 0"
compound=CCCCNC(=O)CCn1c(=O)c2ccccc2n(Cc2cc(C)ccc2C)c1=O target_or_system="Platelet-activating factor acetylhydrolase (Homo sapiens)" label="class 0"
compound=CCOc1ccccc1NC(=O)CCc1nnc2ccc(NCc3ccco3)nn12 target_or_system="Platelet-activating factor acetylhydrolase (Homo sapiens)" label="class 0"
compound="COc1ccc(N2CC(C(=O)NCCN3C(=O)S/C(=C\\c4cccnc4)C3=O)CC2=O)c(OC)c1 (stereo unspecified)" target_or_system="Platelet-activating factor acetylhydrolase (Homo sapiens)" label="class 1"
compound=O=C(Nc1ccc(C(F)(F)F)cc1)c1cccc(-n2cnnn2)c1 target_or_system="Platelet-activating factor acetylhydrolase (Homo sapiens)" label="class 0"
